- Tested on: F1*sub RNA substrate (template-directed ligation)
- experiment summary: fraction ligated after 30 min (ligated reads / total reads); higher = more ligase activity; sequences stand for … in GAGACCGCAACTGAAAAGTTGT…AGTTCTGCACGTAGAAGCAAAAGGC
- experimental parameters: 42 °C
quantity name: fraction ligated
Give the figure by itself; no unit, no explanation.

Known fraction ligated results, listed for orientation:
sequence chain	fraction ligated
TACACTGTCGTAAGACACTTTGGATGGGTTA [3d583]	0.069
TATCATTGTCTAAGACACTTTGATGGGTTGA [3d1195]	0.751
TACACTTGTCTAAGACACTTGGATGGGTTGA [3d639]	0.087
TATCACTTGCGAAGACACTTTGGATGGTTGA [3d1623]	0.248
TATCACTTGTTAAGACACTTTGGTGGGTTGA [3d1713]	0.111

TATCACTTGTCGTAAGACACTTGGAGGTTGA [3d2248] on F1*sub RNA substrate (template-directed ligation) gives fraction ligated = 0.00668

TATACTTTCGTAAGACACTTTGGATGGTTGA [3d809] on F1*sub RNA substrate (template-directed ligation) gives fraction ligated = 0.0312

TATCATTGTCGTAAGACACTTTGGATGGGTTGA [1d6] on F1*sub RNA substrate (template-directed ligation) gives fraction ligated = 0.796

ATCCTTGTCGTAAGACATTTGGATGGGTTGA [3d78] on F1*sub RNA substrate (template-directed ligation) gives fraction ligated = 0.725

TATCTTGTCGTAAGCACTTTGGATGGGTTGA [3d747] on F1*sub RNA substrate (template-directed ligation) gives fraction ligated = 0.743

TATCCTTGCGTAAGACACTTTGGATGGGTTGA [2d92] on F1*sub RNA substrate (template-directed ligation) gives fraction ligated = 0.803

TATCACTTGTCTAAGACACTTTGGATGGGTTA [2d206] on F1*sub RNA substrate (template-directed ligation) gives fraction ligated = 0.803

TTCATTGTCGTAAGACACTTTGGAGGGTTGA [3d332] on F1*sub RNA substrate (template-directed ligation) gives fraction ligated = 0.175

TACACTTGTCGTAGACACTTTGGTGGGTTGA [3d667] on F1*sub RNA substrate (template-directed ligation) gives fraction ligated = 0.0835

TATCACTTTGTAAGACACTTTGGATGGTTGA [3d1476] on F1*sub RNA substrate (template-directed ligation) gives fraction ligated = 0.119

TATCACTTGTCGTAAGACCTTTGGGGGTTGA [3d2196] on F1*sub RNA substrate (template-directed ligation) gives fraction ligated = 0.0519

TATACTTGTCTAAGACACTTTGGAGGGTTGA [3d853] on F1*sub RNA substrate (template-directed ligation) gives fraction ligated = 0.0271

ATCACTTGTCGTAAGACACTTTATGGGTTGA [3d260] on F1*sub RNA substrate (template-directed ligation) gives fraction ligated = 0.0125

TATCACTGTCGTAGACACTTGGATGGGTTGA [3d1391] on F1*sub RNA substrate (template-directed ligation) gives fraction ligated = 0.799

---

- System: F1*sub RNA substrate (template-directed ligation)
- experiment summary: fraction ligated after 30 min (ligated reads / total reads); higher = more ligase activity; sequences stand for … in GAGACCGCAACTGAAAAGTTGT…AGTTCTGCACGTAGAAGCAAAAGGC
- experimental parameters: 42 °C
Is fraction ligated at least 0.07? Then True. If not, False.

sequence chain	qualitative label
TATCACTTGCGTAAGACTTTGGATGGGTTGA [3d1649]	True

Exercise: Hi, just wondering whether TACACTTGTCGTAAGACATTTGGATGGGTTA [3d712] shows fraction ligated of 0.07 or higher.
Key: True

Exercise: Hi, just wondering whether TATCACTTTCGTAAGAATTTGGATGGGTTGA [3d1539] shows fraction ligated of 0.07 or higher.
Key: True

Exercise: Hi, just wondering whether TATCACTTGTCGTAGACATTTGGATGGGTTA [3d2033] shows fraction ligated of 0.07 or higher.
Key: True

Exercise: Hi, just wondering whether TATCATGTCGTAAGACACTTTGGATGGGTTGA [2d109] shows fraction ligated of 0.07 or higher.
Key: True

Exercise: Hi, just wondering whether TATCCTTGTCGTAAGACACTTTGATGGTTGA [3d1107] shows fraction ligated of 0.07 or higher.
Key: False
